Target: HIV reverse transcriptase (RNase H activity) (Human immunodeficiency virus type 1 group M subtype B, UniProt P04585)
Construct: HIV reverse transcriptase has an RNase H domain at the C-terminus of its p66 subunit
Assay: Inhibition of RNase H / HIV reverse transcriptase (fluorescent probe-target hybrid assay)
Assay type: biochemical
Conditions: Table I
pIC50: −log10 of the molar value.
Reported endpoint: pIC50

Compound | Reported endpoint | Value observed
CCC1(c2ccc(Br)cc2)NC(=O)NC1=O (centres unmarked) | pIC50 | 4.19
O=C(c1ccccc1)N1C(=O)N2CCc3ccccc3C2(c2ccccc2)C1=O (centres unmarked) | pIC50 | 4.20
O=C1NC(=O)C(=Cc2cc(Br)cc(Br)c2O)N1 | pIC50 | 4.89
C[C@@]1(c2ccccc2)NC(=O)N(C(=O)/C=C/c2ccc(C(F)(F)F)cc2)C1=O | pIC50 | 4.01
Cc1ccc(C2(C3CC3)NC(=O)NC2=O)cc1C (centres unmarked) | pIC50 | 4.39
CC[C@@]1(c2ccc(C)cc2)NC(=O)NC1=O | pIC50 | 5.70
C[C@]1(c2ccccc2)NC(=O)N(C(=O)/C=C/c2ccc(C(F)(F)F)cc2)C1=O | pIC50 | 4.24
CCC1(c2ccc(C)cc2)N=C(O)N=C1O (centres unmarked) | pIC50 | 5.40
CC(C)(C)OC(=O)N1C(=O)N(C(=O)OC(C)(C)C)C2(CCN(Cc3ccccc3)CC2)C1=O | pIC50 | 4.06
Cc1cc(C(=O)N2C(=O)NC(C)(c3ccccc3)C2=O)ccc1Cl (centres unmarked) | pIC50 | 4.00
Cc1ccc(C(=O)C(C)N2C(=O)NC(C)(c3ccccc3)C2=O)cc1Cl (centres unmarked) | pIC50 | 4.29

* * *

Biological target: HIV reverse transcriptase (RDDP polymerase activity) (Human immunodeficiency virus type 1 group M subtype B, UniProt P04585)
Measured IC50 accompanies every entry in the list below.

Molecule | IC50
C[C@]1(c2ccccc2)NC(=O)N(C(=O)/C=C/c2ccc(C(F)(F)F)cc2)C1=O | > 105 µM
O=C1NC(c2ccccc2)(c2ccccc2)C(=O)N1CCCBr | > 146 µM
Cc1ccc(C(=O)C(C)N2C(=O)NC(C)(c3ccccc3)C2=O)cc1Cl (stereo not drawn) | > 103 µM
Cc1ccc(C2(C3CC3)NC(=O)NC2=O)cc1C (stereo not drawn) | > 122 µM
CC1(c2ccccc2)NC(=O)N(C(=O)/C=C/c2ccc(Cl)c(Cl)c2)C1=O (stereo not drawn) | > 107 µM
CC1(C)SC2C(NC(=O)C(NC(=O)CN3C(=O)NC(c4ccccc4)(c4ccccc4)C3=O)c3ccccc3)C(=O)N2C1C(=O)O (stereo not drawn) | > 62 µM

* * *

Measured IC50 accompanies every entry in the list below.
Target: HIV reverse transcriptase (RDDP polymerase activity) (Human immunodeficiency virus type 1 group M subtype B, UniProt P04585)
Construct: HIV Reverse transcriptase (RT) 66/p51; purchased Worthington
Experiment: RNA dependent DNA polymerase (RDDP) activity of HIV RT, polyrA-oligodT12-18 / 33P TTP incorporation
Format: biochemical

Compound | IC50
C=CN1C(=O)NC(C)(C)C1=O | > 107 µM
O=C1NC(=O)C(=Cc2cc(Br)cc(Br)c2O)N1 | > 111 µM
CC1(c2ccccc2)NC(=O)N(C(=O)/C=C/c2ccc(F)c(C(F)(F)F)c2)C1=O (stereo not shown) | > 115 µM
CC(C)(C)OC(=O)N1C(=O)N(C(=O)OC(C)(C)C)C2(CCN(Cc3ccccc3)CC2)C1=O | > 103 µM
CC[C@@]1(c2ccc(C)cc2)NC(=O)NC1=O | > 180 µM
CCC1(c2ccc(C)cc2)N=C(O)N=C1O (stereo not shown) | > 184 µM
C[C@@]1(c2ccccc2)NC(=O)N(C(=O)/C=C/c2ccc(C(F)(F)F)cc2)C1=O | > 100 µM
CC1(c2ccccc2)NC(=O)N(C(=O)/C=C/c2ccccc2)C1=O (stereo not shown) | > 260 µM
O=C1NC(=O)C(=Cc2cc(Cl)cc(Cl)c2O)N1 | > 102 µM
Cc1cn([C@H]2C[C@H](N=[N+]=[N-])[C@@H](CO)O2)c(=O)[nH]c1=O [AZT, reference compound] | < 0.2 µM
